assay: Single-dose two-period crossover bioequivalence study, fasting: plasma pharmacokinetics of lisinopril and amlodipine (LC-MS/MS, NCA); details: human, plasma, po, Plasma concentration of amlodipine, Min, reference (R) tablets, nominal time 2 h, minimum over subjects;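 note: single tablet dose 10 mg/5 mg fixed combination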
QUANTITY: concentration at 2 h (ng/mL)
// note: answer is a bare numeric in ng/mL

[Q] # input compound: CCOC(=O)C1=C(COCCN)NC(C)=C(C(=O)OC)C1c1ccccc1Cl (stereo not shown) ; wanted: its concentration at 2 h
[A] 0.452

====

assay: Single-dose two-period crossover bioequivalence study, fed (high-fat breakfast): plasma pharmacokinetics of lisinopril and amlodipine (LC-MS/MS, NCA); settings: human, plasma, po, Plasma concentration of lisinopril, Max, maximum among subjects, nominal time 4 h, reference (R) tablets
QUANTITY: concentration at 4 h (ng/mL)
// note: answer is a bare numeric in ng/mL

[Q] # input compound: NCCCC[C@H](N[C@@H](CCc1ccccc1)C(=O)O)C(=O)N1CCC[C@H]1C(=O)O ; wanted: its concentration at 4 h
[A] 29.2

====

experiment: Single-dose two-period crossover bioequivalence study, fasting: plasma pharmacokinetics of lisinopril and amlodipine (LC-MS/MS, NCA); conditions: human, plasma, po, Plasma concentration of amlodipine, Max, reference (R) tablets, nominal time 13 h, maximum over subjects;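 note: single tablet dose 10 mg/5 mg fixed combination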
QUANTITY: concentration at 13 h (ng/mL)
// note: answer is a bare numeric in ng/mL

[Q] # input molecule: CCOC(=O)C1=C(COCCN)NC(C)=C(C(=O)OC)C1c1ccccc1Cl (stereo not shown) [amlodipine] ; wanted: its concentration at 13 h
[A] 2.75

====

assay: Single-dose two-period crossover bioequivalence study, fasting: plasma pharmacokinetics of lisinopril and amlodipine (LC-MS/MS, NCA); conditions: human, plasma, po, Plasma concentration of amlodipine, Mean, reference (R) tablets, nominal time 96 h, mean of subjects;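 note: single tablet dose 10 mg/5 mg fixed combination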
QUANTITY: concentration at 96 h
Answer with the number, then the unit.

[Q] # input compound: CCOC(=O)C1=C(COCCN)NC(C)=C(C(=O)OC)C1c1ccccc1Cl (stereo not shown) [amlodipine] ; wanted: its concentration at 96 h
[A] 0.446 ng/mL

====

experiment: Single-dose two-period crossover bioequivalence study, fed (high-fat breakfast): plasma pharmacokinetics of lisinopril and amlodipine (LC-MS/MS, NCA); details: human, plasma, po, Plasma concentration of lisinopril, Min, minimum among subjects, nominal time 36 h, reference (R) tablets
QUANTITY: concentration at 36 h (ng/mL)
// note: answer is a bare numeric in ng/mL

[Q] # input compound: NCCCC[C@H](N[C@@H](CCc1ccccc1)C(=O)O)C(=O)N1CCC[C@H]1C(=O)O ; wanted: its concentration at 36 h
[A] 1.27

====

assay: Single-dose two-period crossover bioequivalence study, fed (high-fat breakfast): plasma pharmacokinetics of lisinopril and amlodipine (LC-MS/MS, NCA); settings: human, plasma, po, Plasma concentration of lisinopril, Mean, mean of 37 subjects, nominal time 36 h, reference (R) tablets
QUANTITY: concentration at 36 h (ng/mL)
// note: answer is a bare numeric in ng/mL

[Q] # input compound: NCCCC[C@H](N[C@@H](CCc1ccccc1)C(=O)O)C(=O)N1CCC[C@H]1C(=O)O ; wanted: its concentration at 36 h
[A] 2.32

====

test: Single-dose two-period crossover bioequivalence study, fed (high-fat breakfast): plasma pharmacokinetics of lisinopril and amlodipine (LC-MS/MS, NCA); settings: human, in vivo, po, Plasma concentration of lisinopril, Max, maximum among subjects, nominal time 3 h, reference (R) tablets
QUANTITY: concentration at 3 h (ng/mL)
// note: answer is a bare numeric in ng/mL

[Q] # input molecule: NCCCC[C@H](N[C@@H](CCc1ccccc1)C(=O)O)C(=O)N1CCC[C@H]1C(=O)O ; wanted: its concentration at 3 h
[A] 22.4

Source of measurements: paper PMC9260974
